Each record here notes measured pKd.
subjectOfTest: T1, hPRLR.mmh (soluble monomeric human PRLR) (Homo sapiens, UniProt P16471)
T1 construct: soluble monomeric (hPRLR.mmh); mmh (myc-myc-hexahistidine)
experimentDescription: Surface plasmon resonance (Biacore T200), mAb-capture format
Assay type: binding
experimentalSetup: 25° C., antibody-capture format, analyte hPRLR.mmh
pKd: −log10 of the molar value.

molecule	pKd
H1H6781P: anti-PRLR antibody, human IgG1 Fc; HCVR/LCVR SEQ ID NOs 50/58 (antibody, V domains shown, human IgG1 Fc) VH: EVQLVESGGDLVQPGESLRLSCTASGFTFNSYEMNWVRQAPGKGLEWVSYISSSGGTKYYVDSVKGRFTISRDNAKKSLYLQMNSLRADDTALYYCARLNGVDVFDIWGQGTMVTVSS VL: DIQMTQSPSSLSASVGDRVTITCRASQDIFNYLAWFQQKPGKVPELLISAASTLQSGVPSRFSGSGSGTYFTLTISSLQPEDIATYYCQRYNSAPLTFGGGTKVEIK	9.21
H1H6762P: anti-PRLR antibody, human IgG1 Fc; HCVR/LCVR SEQ ID NOs 2/10 (antibody, V domains shown, human IgG1 Fc) VH: QVQLVESGGGVVQPGRSLRLSCAASGFTFSHYGMVWVRQPPGKGLEWVALISFDGTTKYYADSVKGRFTISRDNSKNTLYLQMNSLRAEDTAVYFCVGAIAAAAFDLWGRGTLVTVSS VL: EIVMTQSPATLSVSPGERATLSCRASQSVSSDLAWYQQKPGQAPRLLIYSASARATGIPARFTGSGSGTDFTLTISSLQSEDFAVYYCQQYNNWPMYTFGQGTKLEIK	9.59
H1H6792P: anti-PRLR antibody, human IgG1 Fc; HCVR/LCVR SEQ ID NOs 130/138 (antibody, V domains shown, human IgG1 Fc) VH: EVQLVESGGGLVQPGRSLRLSCAASGFTLDDHAVHWVRQAPGKGLEWVSGISWNSVYIDYADSVKGRFTIFRDNAKNSLYLQMNSLRAEDTAFYYCARDIEGARDYWGQGTLVTVSS VL: DIQMTQSPSSLSASVGDRVTITCRASQGIRNDLGWYQQKPGKAPKRLIYAASSLQSGVPSRFSGSGYGTEFTLTISSLQPEDFAPYYCLQHNSYPLTFGGGTKVEIK	8.61
H1H6800P: anti-PRLR antibody, human IgG1 Fc; HCVR/LCVR SEQ ID NOs 194/202 (antibody, V domains shown, human IgG1 Fc) VH: EVQLVESGGGLVQPGRSLRLSCAASGFTFDGYAMHWVRQGPGKGLEWVSGISWYSDTLGYADSVKGRFTISRDNAKNSLYLQMNSLRTEDTAFYYCAKISSSGWAFDYWGQGTLVTVSS VL: EIVLTQSPGTLSLSPGERATLSCRASHSVSSAYLAWYQQKPGQTPRLLIYGTSSRATGIPDRFSGSGSGTDFTLTISRLEPEDFAVYYCQQYGSSPLFTFGPGTKVDIK	9.01
H1H6793P: anti-PRLR antibody, human IgG1 Fc; HCVR/LCVR SEQ ID NOs 146/154 (antibody, V domains shown, human IgG1 Fc) VH: EVQLVESGGGLVQPGGSLRLSCAASGFSFSIYAMSWFRQAPGKGLEWVSAINGRGDGTHYADSVKGRFTISRDNSKTTLYLQMSSLRAEDTAVYYCAKPVMSTNGFDIWGQGTMVTVSS VL: DIQMTQSPSTLSASVGDRVTITCRASQSISSWLAWYQLKPGKAPKLLIYKASNLESGVPSRFSGSGSGTEFTLTISSLQPDDFATYYCQQYNIYWTFGQGTKVEIK	8.85
H1H6795P: anti-PRLR antibody, human IgG1 Fc; HCVR/LCVR SEQ ID NOs 162/170 (antibody, V domains shown, human IgG1 Fc) VH: QVQLVQSGAEVKKPGASVKVSCKASGYTFGTSGITWVRQAPGQGLEWMGWSSAYNGKTDYAQKFQDRVTMTTDTSTTTGYMEMRSLTSDDTAVYYCTTVVRRPFDFWGQGTLVTVSS VL: DIQMTQSPSSLSASVGDRVTITCRASQDINNFLAWFQQKPGKAPKSLIYAASSLQSGVPSKFSGGGSGTDFALTISSLQPEDFATYYCQQYSSYPITFGQGTRLEIK	8.82
H1H6765P: anti-PRLR antibody, human IgG1 Fc; HCVR/LCVR SEQ ID NOs 18/26 (antibody, V domains shown, human IgG1 Fc) VH: EVQLVESGGGVVRPGGSLRLSCVGSGFSFDDHGMNWVRQGPGKGLEWVSGFNWNGGSTNYAESVKGRFTISRDNARNSLFLQMNSLRAEDTALYYCVRGRSGWFNDAFDVWGPGTMVTVSS VL: EIVLTQSPGTLSLSPGERATLSCRASQTINSNYLAWYRQKPGQTPRLLIYGTSSRATGIPDRFSGSGSGTDFSLTISRLEPEDFAVFYCQQYAGLPTFGPGTKVDIK	9.91
H1H6785P: anti-PRLR antibody, human IgG1 Fc; HCVR/LCVR SEQ ID NOs 98/106 (antibody, V domains shown, human IgG1 Fc) VH: EVQLVESGGGLVQPGGSLRLSCAASGFTFSSYEMNWVRQAPGKGLEWISYISSRGGTIYYADSIKGRFTIYRDNARNSLYLQMNSLRAEDTAIYYCARLSGVDIFDIWGQGTMVTVSS VL: DIQMTQSPSSLSASVGDRVTITCRASQGISNYLAWYQQKPGKVPKLLIYFASTLQSGVPSRFSGGGSGTDFTLTISSLQPEDVATYYCQRYNSAPLTFGGGTKVEIK	9.25
